target: Oxytocin receptor (Homo sapiens, UniProt P30559)
Sequence (P30559 whole entry): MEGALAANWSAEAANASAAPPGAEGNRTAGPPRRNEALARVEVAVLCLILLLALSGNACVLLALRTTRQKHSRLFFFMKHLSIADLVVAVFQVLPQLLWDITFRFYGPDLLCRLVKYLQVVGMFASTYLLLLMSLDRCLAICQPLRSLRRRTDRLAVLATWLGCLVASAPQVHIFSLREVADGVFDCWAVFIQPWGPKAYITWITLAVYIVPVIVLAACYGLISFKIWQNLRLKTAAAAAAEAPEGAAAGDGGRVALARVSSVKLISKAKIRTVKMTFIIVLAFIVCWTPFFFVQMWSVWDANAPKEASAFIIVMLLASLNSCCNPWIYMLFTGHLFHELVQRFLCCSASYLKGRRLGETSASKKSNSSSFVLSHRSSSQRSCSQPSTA
testDetails: Activation of human 3X-HA N-tagged OTR expressed in CHO-K1 cells incubated for 10 mins by cell Western assay
Format: cell-based
Bridge positions count the residues as written; N and C are the ends. Square brackets hold non-standard residues; d marks the D form. Peptide text beside a SMILES is read from it. * marks the point of attachment. X1 = OC[C@H]1O[C@@H](O[C@H]2[C@H](O)[C@@H](O)[C@H](*)O[C@@H]2CO)[C@H](O)[C@@H](O)[C@H]1O; βGlc = OC[C@H]1O[C@@H](*)[C@H](O)[C@@H](O)[C@@H]1O; Dap = NC[C@H](N)C(=O)O; Aib = CC(C)(N)C(=O)O
measuredMetric: pEC50
Please note pEC50 is a logarithmic value: minus log10 of concentration in mol/L. Answer with that number alone.

CC[C@H](C)[C@@H]1NC(=O)[C@H](Cc2ccc(O)cc2)NC(=O)[C@@H](N)CCC(=O)NC[C@@H](C(=O)N2CCC[C@H]2C(=O)NC(C)(C)C(=O)NCC(=O)N[C@@H](CO[C@@H]2O[C@H](CO)[C@@H](O)[C@H](O)[C@H]2O)C(N)=O)NC(=O)[C@H](CC(N)=O)NC(=O)[C@H](CCC(N)=O)NC1=O	10.22
CC[C@H](C)[C@@H]1NC(=O)[C@H](Cc2ccc(O)cc2)NC(=O)[C@@H](N)CC(=O)NC[C@@H](C(=O)N2CCC[C@H]2C(=O)N[C@@H](CC(C)C)C(=O)N[C@@H](CO[C@@H]2O[C@H](CO)[C@@H](O[C@@H]3O[C@H](CO)[C@H](O)[C@H](O)[C@H]3O)[C@H](O)[C@H]2O)C(N)=O)NC(=O)[C@H](CC(N)=O)NC(=O)[C@H](CCC(N)=O)NC1=O (H-DYIQN[Dap]PLS(X1)-NH2; lactam 1-6)	9.27
CC[C@H](C)[C@@H]1NC(=O)[C@H](Cc2ccc(O)cc2)NC(=O)[C@@H](N)CCC(=O)NC[C@@H](C(=O)N2CCC[C@H]2C(=O)NC(C)(C)C(=O)N[C@@H](CO[C@@H]2O[C@H](CO)[C@@H](O)[C@H](O)[C@H]2O)C(N)=O)NC(=O)[C@H](CC(N)=O)NC(=O)[C@H](CCC(N)=O)NC1=O (H-EYIQN[Dap]P[Aib]S(βGlc)-NH2; lactam 1-6)	6.66
CC[C@H](C)[C@@H]1NC(=O)[C@H](Cc2ccc(O)cc2)NC(=O)[C@@H](N)CCC(=O)NC[C@@H](C(=O)N2CCC[C@H]2C(=O)N[C@@H](CC(C)C)C(=O)N[C@@H](CO[C@@H]2O[C@H](CO)[C@@H](O)[C@H](O)[C@H]2O)C(N)=O)NC(=O)[C@H](CC(N)=O)NC(=O)[C@H](CCC(N)=O)NC1=O (H-EYIQN[Dap]PLS(βGlc)-NH2; lactam 1-6)	9.14

Proceeding to the next compound to report its pEC50.
Please fill in: pEC50 reported for CC[C@H](C)[C@@H]1NC(=O)[C@H](Cc2ccc(O)cc2)NC(=O)[C@@H](N)CC(=O)NC[C@@H](C(=O)N2CCC[C@H]2C(=O)N[C@@H](CC(C)C)C(=O)NCC(=O)N[C@@H](CO[C@@H]2O[C@H](CO)[C@@H](O[C@@H]3O[C@H](CO)[C@H](O)[C@H](O)[C@H]3O)[C@H](O)[C@H]2O)C(N)=O)NC(=O)[C@H](CC(N)=O)NC(=O)[C@H](CCC(N)=O)NC1=O (H-DYIQN[Dap]PLGS(X1)-NH2; lactam 1-6) = 6.80
